conditions: 298.15 K; 101.33 kPa; Liquid; Vibrating tube method
observable: mass density (kg/m3)
One number for each entry, in kg/m3.

Here are 3 compounds together with their reported answers.
{"compound": "Cc1ccccc1C [1,2-dimethylbenzene]", "mass density (kg/m3)": 875.52}
{"compound": "Cc1ccc(C)cc1 [1,4-dimethylbenzene]", "mass density (kg/m3)": 856.65}
{"compound": "CC(=O)CC(C)C [4-methylpentan-2-one]", "mass density (kg/m3)": 798.09}

Report mass density for each item below.
1. C=CC(=O)O [propenoic acid]
2. Cc1ccccc1 [toluene]

1. 1059.17
2. 862.34

Data provenance is the NIST ThermoML archive (doi:10.1021/je201130h).
